- assay text: qHTS for Inhibitors of human tyrosyl-DNA phosphodiesterase 1 (TDP1): qHTS in cells in presence of CPT; note: nearly all actives have a fitted effect of over 55% in size; note: potency is the fitted concentration of half-maximal effect
- test conditions: chicken DT40 Tdp1-/-;hTDP1 cells + 20 nM CPT, ATP luminescence, 48 h; series mostly up to 46.2 µM
In all, about 420,000 compounds went through this assay and about 50,000 (12%) were called active. Inconclusive results (about 26%) are left out. Many of the other results were omitted from the sample, so actives are more common in it than they were.
value type: Potency

INSERT INTO measurements (molecule, result) VALUES
  ('O=C(c1nnc(-c2ccc(Cl)cc2)o1)C1CCCC1', 'inactive'),
  ('O=c1ccc(S(=O)(=O)N2CCCC2)cn1Cc1nc(-c2ccccc2)no1', 'inactive'),
  ('CCCOC(=O)c1c(NC(=O)c2cc3nc(-c4ccc(OC)cc4)cc(C(F)(F)F)n3n2)sc2c1CCCC2', 'inactive'),
  ('Cc1nc2sc(C(c3ccco3)N3CCOCC3)c(O)n2n1 (stereo not given)', 'inactive'),
  ('Cc1ccc2nc(N(CCN(C)C)C(=O)C3=COCCO3)sc2c1', 'inactive'),
  ('CC1COc2ccccc2N1C(=O)c1ccc(F)cc1 (stereo not given)', 'inactive'),
  ('O=C(CC1SC(=Nc2ccccc2F)N(CCN2CCOCC2)C1=O)Nc1ccc(F)cc1F (stereo not given)', 'inactive'),
  ('CCN1CCC(O)(/C=C/c2ccc(C)cc2)C(C(=O)/C=C/c2ccc(C)cc2)C1 (stereo not given)', '3.66 µM (active)'),
  ('O=[N+]([O-])c1ccc(NC(=S)N2CCN(c3ccccn3)CC2)cc1', '16.4 µM (active)'),
  ('CCN(CC)S(=O)(=O)c1ccc2c(c1)c(=O)c(C(=O)N1CCN(c3cccc(Cl)c3)CC1)cn2C', 'inactive');

* * *

- assay text: qHTS for Inhibitors of human tyrosyl-DNA phosphodiesterase 1 (TDP1): qHTS in cells in presence of CPT; note: nearly all actives have a fitted effect of over 55% in size
- test conditions: chicken DT40 Tdp1-/-;hTDP1 cells + 20 nM CPT, ATP luminescence, 48 h; series mostly up to 46.2 µM
Out of some 420,000 compounds screened, about 50,000 (12%) were called active. Roughly 26% stayed inconclusive and do not appear here. The sample holds actives, similar compounds and a random draw of the others, so the mix is not that of the screen.
value type: outcome

INSERT INTO measurements (compound, result) VALUES
  ('CCN(CC)CCN(C(=O)c1cc(Cl)sc1Cl)c1nc2cc3c(cc2s1)OCO3', 'inactive'),
  ('Cc1cn(C2CC(O)C(CO)O2)c(=O)n(CCCc2ccccc2)c1=O (stereo not given)', 'inactive'),
  ('CC1CN/C(=C\C(=O)c2ccc(Br)cc2)C(=O)N1 (stereo not given)', 'inactive'),
  ('Cc1cccc(NC(=O)C2CC(=O)OC23CCCC3)c1 (stereo not given)', 'inactive'),
  ('CN1CCN(C(=O)c2cnn(-c3ccccc3)c2NC(=O)c2ccc([N+](=O)[O-])cc2)CC1', 'inactive'),
  ('O=C(COC(=O)c1ccccc1NC(=O)c1ccco1)Nc1ccc2c(c1)OC(F)(F)O2', 'inactive'),
  ('COc1ccccc1OCC(=O)Nc1nnc2n1CCS2', 'inactive'),
  ('CC1CC1C(=O)OCC(=O)Nc1cccc(F)c1 (stereo not given)', 'inactive'),
  ('CCN(CC)Cc1c(C(=O)N/N=C/c2cccc(OCc3ccc(F)cc3)c2)nnn1-c1nonc1N', 'inactive'),
  ('CC(=O)Nc1ccc(S(=O)(=O)NCC2CCC(C(=O)NCCc3ccccc3)CC2)cc1 (stereo not given)', 'inactive');

* * *

- assay text: qHTS for Inhibitors of human tyrosyl-DNA phosphodiesterase 1 (TDP1): qHTS in cells in presence of CPT; note: nearly all actives have a fitted effect of over 55% in size
- test conditions: chicken DT40 Tdp1-/-;hTDP1 cells + 20 nM CPT, ATP luminescence, 48 h; series mostly up to 46.2 µM
Out of some 420,000 compounds screened, about 50,000 (12%) were called active. Another 26% or so got no clear call; they are omitted. Calls follow the shape of the dose curve; as a rule, active = well fitted inhibition curve with a large enough effect; inconclusive = small, poorly fitted or top-dose-only effect; inactive = flat fitted curve, though single readings scatter. This is one part of a sample in which actives are shown more often than they occur.
Labels: active, inactive

INSERT INTO measurements (compound, assigned_class) VALUES
  ('CCOc1ncccc1C(=O)NCCc1ccc(OC)cc1', 'active'),
  ('COc1cccc(NC(=O)CN2CCN(c3nc(-c4cccc(OC)c4)cs3)CC2)c1', 'inactive'),
  ('Cc1ccc(C)c(-n2cc(CN3CCN(C(=O)c4ncn[nH]4)CC3)c(-c3ccccc3)n2)c1', 'inactive'),
  ('CCN(c1ccccc1)S(=O)(=O)c1ccc(OCC(=O)N2CCCC2)cc1', 'inactive'),
  ('CC(C)c1ccc(NC(=O)c2ccc3c(O)c(S(=O)(=O)c4ccccc4)c(=O)[nH]c3c2)cc1', 'inactive'),
  ('CCC(C)C(NC(=O)C1CCC(=O)N1C(=O)OCc1ccccc1)C(=O)NC(C(=O)N1CCCC1C(N)=O)C(C)CC (stereo not given)', 'inactive'),
  ('COc1ccccc1NC(=O)CCN1CCN(c2ccc(Cl)cc2)CC1', 'active'),
  ('O=C(NCCc1c[nH]c2ccc(Cl)cc12)c1ccc([N+](=O)[O-])cc1', 'inactive'),
  ('COc1ccc(NC(=O)CCN2CCCC2)c(OC)c1', 'inactive'),
  ('Cc1ccc(Nc2nnc(SC(C)C(=O)NC3CC3)s2)cc1 (stereo not given)', 'inactive');

* * *

- assay text: qHTS for Inhibitors of human tyrosyl-DNA phosphodiesterase 1 (TDP1): qHTS in cells in presence of CPT; note: nearly all actives have a fitted effect of over 55% in size; note: potency is the fitted concentration of half-maximal effect
- test conditions: chicken DT40 Tdp1-/-;hTDP1 cells + 20 nM CPT, ATP luminescence, 48 h; series mostly up to 46.2 µM
About 50,000 (12%) of roughly 420,000 compounds were called active. Inconclusive results (about 26%) are left out. The full list was thinned out, with actives kept by preference.
value type: Potency

INSERT INTO measurements (molecule, result) VALUES
  ('O=C(CSc1ncn[nH]1)N/N=C/c1ccc(F)cc1', 'inactive'),
  ('COc1ccc(Cl)cc1CSc1ncn[nH]1', 'inactive'),
  ('COc1ccc(C)cc1-n1nnnc1SCc1nc2ccccc2c(=O)[nH]1', '13 µM (active)'),
  ('Cc1ccc(S(=O)(=O)CCC(=O)OCC(=O)N(C)C2CCS(=O)(=O)C2)cc1 (stereo not given)', 'inactive'),
  ('CN(/N=C/c1ccccc1)C(=S)c1ccccc1', 'inactive'),
  ('CC1CN(S(=O)(=O)c2cccc(C(F)(F)F)c2)CN1C(=O)N1CCOCC1 (stereo not given)', 'inactive'),
  ('COc1ccc(C(=O)NC2CCCc3c2cnn3-c2cccc(C)c2C)c(OC)n1 (stereo not given)', '10.3 µM (active)'),
  ('CCN1CCN(C(=O)CN(C)S(=O)(=O)c2ccc3ccccc3c2)CC1', 'inactive'),
  ('O=C1OC(OC(=O)c2ccccc2Br)C(N2CCOCC2)=C1Cl (stereo not given)', 'inactive'),
  ('C/C(N)=C(/C#N)C(=O)COC(=O)C1=NN(c2ccccc2)C(=O)CC1', 'inactive'),
  ('COc1ccc(C(C)=O)cc1COc1ccc(Cl)c(C)c1', '10.3 µM (active)'),
  ('O=C(O)CC(CC(=O)N1CCOCC1)c1ccccc1 (stereo not given)', 'inactive'),
  ('Cc1cccc(C(=O)OC(C)C(=O)NC2CCCc3ccccc32)c1O (stereo not given)', 'inactive'),
  ('O=C(CNCc1ccc(Cl)cc1)Nc1cccc(C(=O)O)c1', 'inactive'),
  ('Cc1ccc(Sc2cc(C(=O)c3ccccc3C(=O)O)ccc2[N+](=O)[O-])cc1', 'inactive'),
  ('COc1cccc(C(O)c2nc3ccccc3n2C)c1 (stereo not given)', 'inactive'),
  ('O=C(NN1C(=O)C2CCCCC2C1=O)c1ccco1 (stereo not given)', 'inactive'),
  ('Cc1ccc(CCNC(=O)Cn2c(-c3cccs3)cc3cc(F)ccc32)cc1', '18.4 µM (active)'),
  ('COc1cc(/C=C/C(=O)OCC(=O)Nc2cccc(Oc3ccccc3)c2)ccc1O', 'inactive'),
  ('COc1ccc(CCNC(=O)COC(=O)Cc2cccc(F)c2)cc1', 'inactive'),
  ('CC(=O)c1cccc(NC(=S)N2CCCC2)c1', 'inactive'),
  ('CCC(Oc1ccccc1C)C(=O)Nc1ccc(S(=O)(=O)Nc2cc(C)on2)cc1 (stereo not given)', 'inactive'),
  ('O=C(/C=C/Sc1ncn[nH]1)c1ccc(Cl)cc1', '2.31 µM (active)'),
  ('CCc1cc(-c2n[nH]c(=S)n2CC(C)C)cs1', 'inactive'),
  ('Cc1ccc(SC(CC(=O)c2ccc(C(C)(C)C)cc2)C(=O)O)cc1 (stereo not given)', '3.66 µM (active)'),
  ('O=c1c(-c2ccc(Cl)cc2)[n+]([O-])c2ccccc2n1OCc1nc2ccccc2[nH]1', 'inactive'),
  ('CCCNC(=O)c1ccc(N2CCC3(CC2)CC(c2cccc(Br)c2)=NO3)c(NC(=O)c2ccco2)c1', '5.17 µM (active)'),
  ('CCOc1ccc(OCC)c(-c2c(=O)n(OCc3ccc(Cl)cc3)c3ccccc3[n+]2[O-])c1', '7.31 µM (active)'),
  ('COCCCNC(=O)c1c(NC(=O)c2cc(=O)c3cc(C)c(C)cc3o2)sc2c1CCCC2', 'inactive'),
  ('CCCNC(=O)c1ccc(N2CCC3(CC2)CC(c2ccc(Cl)cc2)=NO3)c([N+](=O)[O-])c1', '23.1 µM (active)'),
  ('Cc1cc(C(=O)NNC(=O)CCC2CCCCC2)c(C)o1', 'inactive'),
  ('CN(CC(=O)O)C(=O)c1ccccc1', 'inactive'),
  ('Nc1ccccc1-c1nc2ccncc2[nH]1', 'inactive'),
  ('O=C(Cn1cc(C(=O)C2CC2)c2ccccc21)Nc1ccccc1Cl', 'inactive'),
  ('CN(O)C(=S)c1ccccc1', '0.13 µM (active)'),
  ('CCN(CC)C(=O)Cn1cc(S(=O)(=O)CC(=O)NCc2ccc3c(c2)OCO3)c2ccccc21', 'inactive'),
  ('CC(C)CC1(C)NC(=O)N(CC(=O)Nc2ccc3c(c2)OCCO3)C1=O (stereo not given)', 'inactive'),
  ('Cc1ccc(N2C(=O)CC(N3CCSCC3)C2=O)c(C)c1 (stereo not given)', 'inactive'),
  ('CCOc1cc(/C=N/NC(=O)c2cccc(S(=O)(=O)N3CCOCC3)c2)ccc1OCC(=O)N(C)C', 'inactive'),
  ('CCc1nc2c(=O)[nH]cnc2o1', 'inactive'),
  ('Cc1ccc(C(=O)CSc2ccccc2C(=O)O)cc1', 'inactive'),
  ('O=C(COC(=O)Cn1[nH]c(=O)c2ccccc2c1=O)Nc1ncc(Cl)cc1Cl', 'inactive'),
  ('CCCNC(=O)COc1coc(CN2CCN(Cc3ccccc3)CC2)cc1=O', 'inactive'),
  ('COC(=O)c1ccc(N2CCOCC2)c(NC(=O)c2ccc(Br)o2)c1', 'inactive'),
  ('COCCCn1c(SCC(=O)NC2CCCC2)nnc1-c1ccccc1', 'inactive');

The measured values listed here are drawn from PubChem BioAssay AID686979.
